ASSAY TARGET: T1, mouse ApoE (mouse, UniProt P08226 19-311, limits assumed)
T1 construct: also called msApoE; ms ApoE
T1 sequence (looked up): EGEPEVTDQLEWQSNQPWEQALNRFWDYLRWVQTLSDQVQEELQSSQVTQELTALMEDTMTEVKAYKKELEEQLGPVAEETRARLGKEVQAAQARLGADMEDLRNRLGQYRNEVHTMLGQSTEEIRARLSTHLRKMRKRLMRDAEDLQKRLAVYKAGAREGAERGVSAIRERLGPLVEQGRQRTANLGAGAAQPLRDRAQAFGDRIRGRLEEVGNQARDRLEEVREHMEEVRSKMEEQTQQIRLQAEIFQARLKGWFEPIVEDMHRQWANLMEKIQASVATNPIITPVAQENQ
PROTOCOL SUMMARY: pH affinity ELISA, coated mouse ApoE, pH 7.4
MEASURED PARAMETER: EC50 (µg/mL)
Please reply with the bare figure in µg/mL and do not write the unit itself.

BAP191.01-CPE-HC-I051D (antibody, V domains shown, also called BAP191.01-CPE-HC-1051D) VH: QIQLVQSGPELKKPGETVKISCKASGYTFTTAGMQWVQKMPGKGFKWIGWDNTHSGEPKYAEDFKGRFAFSLETSASTAYLQISNLKNEDTATYFCARMGGYAMDYWGQGTSVTVSS VL: DIKLTQSPSSMYASLGERVTITCKASEDINSYLSWFQQKPGKSPKTLIYRANRLVDGVPSRFSGSGSGQDYSLTISSLEYEDMGIYYCLQYDEFPLTFGAGTKLELT = 0.39
Anti-ApoE wildtype antibody BAP191.01-WT (antibody, V domains shown, also called benchmark; parent) VH: QIQLVQSGPELKKPGETVKISCKASGYTFTTAGMQWVQKMPGKGFKWIGWINTHSGEPKYAEDFKGRFAFSLETSASTAYLQISNLKNEDTATYFCARMGGYAMDYWGQGTSVTVSS VL: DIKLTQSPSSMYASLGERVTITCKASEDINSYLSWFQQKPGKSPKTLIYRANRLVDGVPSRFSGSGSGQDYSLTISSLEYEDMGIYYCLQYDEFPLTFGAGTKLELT = 0.089
BAP191.01-CPE-HC-M099E (antibody, V domains shown) VH: QIQLVQSGPELKKPGETVKISCKASGYTFTTAGMQWVQKMPGKGFKWIGWINTHSGEPKYAEDFKGRFAFSLETSASTAYLQISNLKNEDTATYFCAREGGYAMDYWGQGTSVTVSS VL: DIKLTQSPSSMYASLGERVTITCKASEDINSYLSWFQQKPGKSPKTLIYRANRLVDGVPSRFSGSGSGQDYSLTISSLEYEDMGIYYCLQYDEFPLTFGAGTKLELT = 1.58

Query: Retrieve EC50 measured for BAP191.01-CPE-HC-R098E (antibody, V domains shown) VH: QIQLVQSGPELKKPGETVKISCKASGYTFTTAGMQWVQKMPGKGFKWIGWINTHSGEPKYAEDFKGRFAFSLETSASTAYLQISNLKNEDTATYFCAEMGGYAMDYWGQGTSVTVSS VL: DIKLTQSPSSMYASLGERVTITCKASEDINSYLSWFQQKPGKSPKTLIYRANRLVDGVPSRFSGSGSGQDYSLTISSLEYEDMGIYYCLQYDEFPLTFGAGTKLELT and print it.
Reply: 0.413
